Molecular target: Prostaglandin G/H synthase 2 (Homo sapiens, UniProt P35354)
Sequence (P35354 whole entry): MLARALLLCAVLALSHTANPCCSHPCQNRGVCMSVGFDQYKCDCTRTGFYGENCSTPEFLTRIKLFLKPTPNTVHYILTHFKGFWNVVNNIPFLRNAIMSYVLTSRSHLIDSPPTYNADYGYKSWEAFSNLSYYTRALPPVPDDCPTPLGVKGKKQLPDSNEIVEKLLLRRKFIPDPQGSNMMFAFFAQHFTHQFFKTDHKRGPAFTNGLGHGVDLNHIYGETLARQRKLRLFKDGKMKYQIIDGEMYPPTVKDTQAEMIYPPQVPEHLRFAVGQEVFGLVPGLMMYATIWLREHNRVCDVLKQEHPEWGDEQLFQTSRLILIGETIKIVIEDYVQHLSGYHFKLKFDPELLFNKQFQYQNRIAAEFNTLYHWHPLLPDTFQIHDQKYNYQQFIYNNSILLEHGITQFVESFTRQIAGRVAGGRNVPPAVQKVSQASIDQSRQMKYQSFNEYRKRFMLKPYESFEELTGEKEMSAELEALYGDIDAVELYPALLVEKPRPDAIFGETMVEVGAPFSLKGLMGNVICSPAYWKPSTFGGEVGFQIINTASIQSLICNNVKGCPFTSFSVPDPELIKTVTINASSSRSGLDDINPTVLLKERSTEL
Test: Inhibition of recombinant human prostaglandin G/H synthase 2 (COX-2)
measured.metric: IC50 (µM)

Consider the reported IC50 for these compounds:
CC(C)(C)c1cc(-c2nnc(N)s2)cc(C(C)(C)C)c1O | 3.5
CSc1nnc(-c2cc(C(C)(C)C)c(O)c(C(C)(C)C)c2)s1 | 0.15
CNc1nnc(-c2cc(C(C)(C)C)c(O)c(C(C)(C)C)c2)s1 | 9.6
CC(C)(C)c1cc(-c2nsc(N=C(N)N)n2)cc(C(C)(C)C)c1O | 27
CCSc1nnc(-c2nc(C(C)(C)C)c(O)c(C(C)(C)C)n2)s1 | 2
CCSc1nnc(-c2cc(C(C)(C)C)c(O)c(C(C)(C)C)c2)o1 | 6.5
CC(C)(C)c1cc(-c2nnc(SCCN)s2)cc(C(C)(C)C)c1O | 41
COc1nc(-c2cc(C(C)(C)C)c(O)c(C(C)(C)C)c2)ns1 | 100
CCCSc1nnc(-c2cc(C(C)(C)C)c(O)c(C(C)(C)C)c2)s1 | 100
CC(C)(C)c1cc(-c2nnc(NC#N)o2)cc(C(C)(C)C)c1O | 11

I: CC(C)(C)c1cc(-c2nnc(N=C(N)N)s2)cc(C(C)(C)C)c1O
II: COc1c(C(C)(C)C)cc(-c2nnc(SC)s2)cc1C(C)(C)C
Which value of IC50 is numerically greater: that of I or that of II ? # respond with the chosen item's label
I
(I: 17 µM, II: 0.34 µM)

I: COc1nnc(-c2cc(C(C)(C)C)c(O)c(C(C)(C)C)c2)s1
II: COc1c(C(C)(C)C)cc(-c2nnc(S)s2)cc1C(C)(C)C
III: CC(C)(C)c1cc(-c2nnc(N=C(N)N)o2)cc(C(C)(C)C)c1O
IV: CC(C)(C)c1cc(-c2nnc(S)o2)cc(C(C)(C)C)c1O
Sort (4 compounds) by IC50: min first. Use the labels to give the requested order.
II, I, III, IV

a: CCN(CC)CCSc1nnc(-c2cc(C(C)(C)C)c(O)c(C(C)(C)C)c2)s1
b: CC(C)(C)c1cc(-c2nnc(NN)s2)cc(C(C)(C)C)c1O
c: CCSc1nnc(-c2cc(C(C)(C)C)c(O)c(C(C)(C)C)c2)s1
d: CC(C)(C)c1cc(-c2nsc(NC#N)n2)cc(C(C)(C)C)c1O
Task field, ranking: reported IC50, descending order. Use the labels to give the requested order.
a, b, c, d

1: CCOc1nnc(-c2cc(C(C)(C)C)c(O)c(C(C)(C)C)c2)s1
2: CC(C)(C)c1cc(-c2nc(=O)s[nH]2)cc(C(C)(C)C)c1O
3: CC(C)(C)c1cc(-c2noc(NC#N)n2)cc(C(C)(C)C)c1O
Sort (3 compounds) by IC50: min first. Use the labels to give the requested order.
3, 2, 1
(3: 0.064 µM, 2: 1.1 µM, 1: 6.1 µM)
